assay: Acute toxicity test; settings: both sexes, mouse, in vivo, ip; Kunming mice, intraperitoneal injection, observed one week after administration, weighted regression method
Result type: LD50 at 1 week (mg/kg)
# output: bare number, implied unit mg/kg

> print(dat)
                    record.smiles     result.type   val
1  C=C1CCC(=Cc2ccc(OC)c(O)c2)C1=O  LD50 at 1 week  22.4

Now take the following compound into account.
Sure, the documented LD50 at 1 week for C=C1CCC(=Cc2ccc(O)c(OC)c2)C1=O is 35.2

====

test system: mouse melanoma cells (B16F0); experiment: In vitro antitumor activity test (MTT), B16F0; format: cell-based; details: B16F0, 96 h, B16FD cells (head), 4 days culture with drug, growth inhibition, read-out: IC50 (μmol/L) B16FD
Result type: IC50 (µmol/L)
# output: bare number, implied unit µmol/L

> print(dat)
                    record.smiles            measurement.target  result.type   val
1  C=C1CCC(=Cc2ccc(OC)c(O)c2)C1=O  mouse melanoma cells (B16F0)         IC50  3.42

Now take the following molecule into account.
Sure, the documented IC50 for C=C1CCC(=Cc2ccc(O)c(OC)c2)C1=O is 4.4

These data points were gathered from patent US8415505B2.
